# Emax annotations
# target.of.assay: DOR (Homo sapiens)
# Construct: host or cells: CHO (CHO-hDOR)
# Sequence (P41143 whole entry): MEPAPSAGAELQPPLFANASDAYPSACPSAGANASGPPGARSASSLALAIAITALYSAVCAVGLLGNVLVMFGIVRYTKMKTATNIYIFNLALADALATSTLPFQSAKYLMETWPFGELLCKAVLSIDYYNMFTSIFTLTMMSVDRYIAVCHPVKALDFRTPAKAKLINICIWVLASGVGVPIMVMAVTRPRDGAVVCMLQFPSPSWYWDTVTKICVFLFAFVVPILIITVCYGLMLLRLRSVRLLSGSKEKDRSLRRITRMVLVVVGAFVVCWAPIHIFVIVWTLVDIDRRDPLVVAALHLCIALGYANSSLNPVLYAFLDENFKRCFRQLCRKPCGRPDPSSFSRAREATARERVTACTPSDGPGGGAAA
# assay.name: [35S]GTPγS binding assay, CHO-hDOR membranes
# Format: biochemical
# conditions: relative to reference full agonist DPDPE; read-out: DOR % stim.
Kindly write the number and append the unit.

Use the examples below as a reference point.
molecule	target.of.assay	Emax
CO[C@@]12CCC(=O)[C@@H]3Oc4c(O)ccc5c4[C@@]31CCN(C)[C@@H]2C5 [Compound 1, 14-O-methyloxymorphone, reference compound]	DOR (Homo sapiens)	106%
CO[C@@]12CC[C@H](N[C@@H](C)C(=O)O)[C@@H]3Oc4c(O)ccc5c4[C@@]31CCN(C)[C@@H]2C5	DOR (Homo sapiens)	93%
CO[C@@]12CC[C@H](N[C@@H](Cc3ccccc3)C(=O)O)[C@@H]3Oc4c(O)ccc5c4[C@@]31CCN(C)[C@@H]2C5	DOR (Homo sapiens)	102%
CO[C@@]12CC[C@@H](N[C@@H](CO)C(=O)O)[C@@H]3Oc4c(O)ccc5c4[C@@]31CCN(C)[C@@H]2C5	DOR (Homo sapiens)	98%
CO[C@@]12CC[C@H](N[C@@H](Cc3ccc(O)cc3)C(=O)O)[C@@H]3Oc4c(O)ccc5c4[C@@]31CCN(C)[C@@H]2C5.Cl.Cl	DOR (Homo sapiens)	88%

Query: Short answer please: Emax, DOR (Homo sapiens), entry CO[C@@]12CC[C@@H](NCC(=O)NCC(=O)O)[C@@H]3Oc4c(O)ccc5c4[C@@]31CCN(C)[C@@H]2C5 [Compound 23a]
Response: 102%

Query: For the record `CO[C@@]12CC[C@@H](N[C@@H](C)C(=O)O)[C@@H]3Oc4c(O)ccc5c4[C@@]31CCN(C)[C@@H]2C5` , what value of Emax is listed for DOR (Homo sapiens)?
Response: 104%

Query: Emax of CO[C@@]12CC[C@@H](NCCC(=O)O)[C@@H]3Oc4c(O)ccc5c4[C@@]31CCN(C)[C@@H]2C5 [Compound 20b] on DOR (Homo sapiens)?
Response: 99%

Query: Item: `CO[C@@]12CC[C@@H](N[C@@H](Cc3ccccc3)C(=O)O)[C@@H]3Oc4c(O)ccc5c4[C@@]31CCN(C)[C@@H]2C5` Test system: DOR (Homo sapiens) Read-out: Emax Value: ?
Response: 94%

Query: Field: Emax (DOR (Homo sapiens)). Entry: CC[C@H](N[C@H]1CC[C@@]2(OC)[C@H]3Cc4ccc(O)c5c4[C@@]2(CCN3C)[C@H]1O5)C(=O)O [Compound 19a]
Response: 104%

Query: Entry CO[C@@]12CC[C@@H](N[C@@H](CC(N)=O)C(=O)O)[C@@H]3Oc4c(O)ccc5c4[C@@]31CCN(C)[C@@H]2C5 [Compound 11b] , system DOR (Homo sapiens): what Emax was measured?
Response: 88%

Query: Fill in the recorded Emax for this molecule, with DOR (Homo sapiens) as test system: CO[C@@]12CC[C@H](N[C@@H](CC(=O)O)C(=O)O)[C@@H]3Oc4c(O)ccc5c4[C@@]31CCN(C)[C@@H]2C5 [Compound 13a]
Response: 97%

Query: Tell me reported Emax for CO[C@@]12CC[C@H](N[C@H](Cc3ccccc3)C(=O)O)[C@@H]3Oc4c(O)ccc5c4[C@@]31CCN(C)[C@@H]2C5 [Compound 17a] , tested with DOR (Homo sapiens).
Response: 95%

====

# target.of.assay: KOR (Homo sapiens, UniProt P41145)
# Construct: host or cells: CHO (CHO-hKOR)
# Sequence (P41145 whole entry): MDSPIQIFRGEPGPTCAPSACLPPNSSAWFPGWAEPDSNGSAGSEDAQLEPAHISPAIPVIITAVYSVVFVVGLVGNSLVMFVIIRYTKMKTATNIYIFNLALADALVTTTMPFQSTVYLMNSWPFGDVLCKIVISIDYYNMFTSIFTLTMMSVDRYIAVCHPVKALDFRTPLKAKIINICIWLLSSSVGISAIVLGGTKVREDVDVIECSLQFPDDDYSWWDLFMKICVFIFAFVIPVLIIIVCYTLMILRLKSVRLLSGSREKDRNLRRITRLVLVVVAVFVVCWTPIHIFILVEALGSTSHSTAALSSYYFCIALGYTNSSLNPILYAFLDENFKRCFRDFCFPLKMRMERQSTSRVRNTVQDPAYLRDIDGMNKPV
# assay.name: [35S]GTPγS binding assay, CHO-hKOR membranes
# Assay type: biochemical
# conditions: [35S]GTPγS, CHO human KOR membranes; read-out: KOR EC50
readout.kind: pEC50
Answer as the number alone; pEC50 is minus log10 of concentration in mol/L.

Some solved entries appear below for comparison.
compound	pEC50
CO[C@@]12CC[C@@H](N[C@H](C(=O)O)C3CCCCC3)[C@@H]3Oc4c(O)ccc5c4[C@@]31CCN(C)[C@@H]2C5 [Compound 18b]	6.55
CO[C@@]12CC[C@@H](N[C@@H](CC(=O)O)C(=O)O)[C@@H]3Oc4c(O)ccc5c4[C@@]31CCN(C)[C@@H]2C5 [Compound 13b]	6.12
CO[C@@]12CCC(=O)[C@@H]3Oc4c(O)ccc5c4[C@@]31CCN(C)[C@@H]2C5 [Compound 1, 14-O-methyloxymorphone, reference compound]	6.94
CO[C@@]12CC[C@@H](NC(C)C(=O)O)[C@@H]3Oc4c(O)ccc5c4[C@@]31CCN(C)[C@@H]2C5 (stereo in doubt) [Compound 15b]	6.00

Query: Which value of pEC50 has been reported for CO[C@@]12CC[C@H](N[C@@H](C(=O)O)C(C)C)[C@@H]3Oc4c(O)ccc5c4[C@@]31CCN(C)[C@@H]2C5 [Compound 16a] in the records?
Response: 5.65

Query: # get_value(readout='pEC50', item= CO[C@@]12CC[C@H](N[C@H](C(=O)O)C3CCCCC3)[C@@H]3Oc4c(O)ccc5c4[C@@]31CCN(C)[C@@H]2C5 [Compound 18a] )
Response: 6.60

Query: // query pEC50 value for entry CO[C@@]12CC[C@@H](N[C@@H](CCC(=O)O)C(=O)O)[C@@H]3Oc4c(O)ccc5c4[C@@]31CCN(C)[C@@H]2C5.Cl.Cl [Compound 14b]
Response: 5.65

Query: Item under review: CO[C@@]12CC[C@H](NCCC(=O)O)[C@@H]3Oc4c(O)ccc5c4[C@@]31CCN(C)[C@@H]2C5 [Compound 20a] . Reported pEC50?
Response: 6.73

Query: Which value of pEC50 has been reported for CO[C@@]12CC[C@@H](N[C@H](C(=O)N[C@@H](Cc3ccc(O)cc3)C(=O)O)C(C)C)[C@@H]3Oc4c(O)ccc5c4[C@@]31CCN(C)[C@@H]2C5 [Compound 22b] in the records?
Response: 5.72

Query: I have this compound here, CO[C@@]12CC[C@@H](N[C@@H](Cc3c[nH]c4ccccc34)C(=O)O)[C@@H]3Oc4c(O)ccc5c4[C@@]31CCN(C)[C@@H]2C5 [Compound 10b] , and I need its recorded pEC50.
Response: 6.74

Query: Look up pEC50: CO[C@@]12CC[C@H](N[C@H](Cc3ccccc3)C(=O)O)[C@@H]3Oc4c(O)ccc5c4[C@@]31CCN(C)[C@@H]2C5 [Compound 17a]
Response: 6.67

Query: Recorded pEC50 for `CO[C@@]12CC[C@@H](N[C@@H](CCCCN)C(=O)O)[C@@H]3Oc4c(O)ccc5c4[C@@]31CCN(C)[C@@H]2C5` , please?
Response: 6.28

====

# target.of.assay: KOR (Homo sapiens, UniProt P41145)
# Construct: host or cells: CHO (CHO-hKOR)
# assay.name: [35S]GTPγS binding assay, CHO-hKOR membranes
# Type: biochemical
# conditions: relative to reference full agonist U69,593; read-out: KOR % stim.
Emax of 70% or higher: criterion met. Under 70%: criterion not met.

Consider the following illustrative entries.
compound	label
CO[C@@]12CC[C@H](NCC(=O)O)[C@@H]3Oc4c(O)ccc5c4[C@@]31CCN(C)[C@@H]2C5 [Compound 2a]	criterion met
CO[C@@]12CC[C@H](NCCC(=O)O)[C@@H]3Oc4c(O)ccc5c4[C@@]31CCN(C)[C@@H]2C5 [Compound 20a]	criterion met
CO[C@@]12CC[C@H](N[C@H](C(=O)O)C(C)C)[C@@H]3Oc4c(O)ccc5c4[C@@]31CCN(C)[C@@H]2C5 [Compound 7a]	criterion not met

Query: Decide: is the reported value of Emax for CO[C@@]12CC[C@@H](N[C@H](C(=O)O)C3CCCCC3)[C@@H]3Oc4c(O)ccc5c4[C@@]31CCN(C)[C@@H]2C5 [Compound 18b] equal to or greater than 70%?
Response: criterion not met

Query: Hi team, for CO[C@@]12CC[C@H](NC(C)C(=O)O)[C@@H]3Oc4c(O)ccc5c4[C@@]31CCN(C)[C@@H]2C5 (stereo in doubt) [Compound 15a] , is the recorded Emax at or above 70%?
Response: criterion not met

Query: For this compound, is measured Emax 70% or higher? CO[C@@]12CC[C@@H](N[C@H](Cc3ccccc3)C(=O)O)[C@@H]3Oc4c(O)ccc5c4[C@@]31CCN(C)[C@@H]2C5 [Compound 17b]
Response: criterion met

Query: Could you verify whether the entry CO[C@@]12CC[C@@H](N[C@@H](CC(=O)O)C(=O)O)[C@@H]3Oc4c(O)ccc5c4[C@@]31CCN(C)[C@@H]2C5 [Compound 13b] shows Emax of no less than 70%?
Response: criterion not met

Query: Hi team, for CO[C@@]12CC[C@@H](N[C@@H](CO)C(=O)O)[C@@H]3Oc4c(O)ccc5c4[C@@]31CCN(C)[C@@H]2C5 [Compound 6b] , is the recorded Emax at or above 70%?
Response: criterion met
